// provenance: PubChem BioAssay

Experiment description: reduction of polyQ htt aggregates in cells – imaging, exon1htt(103Q)mCFP cells, high-content imaging, primary screen (AID 483);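 also: compound exposure lasted 3 days before fixation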
Condition context: exon1htt(103Q)mCFP cell line, aggregate imaging, at 2 µM; stronger effect = higher value
Assay readout: inhibition of aggregation (%)
# value in %; strip the unit string

Compound	inhibition of aggregation [%]
Oc1ccc2ccccc2c1CN1CCN(c2ccccc2F)CC1	7.8
Cc1ccc(C)c2[nH]c(=O)c(CCNC(=O)CC(C)(C)C)cc12	33.1
COc1cc2c(cc1OC)C(c1ccc(C)o1)CC(=O)N2 (stereo unspecified)	-33.4
COc1cccc(-c2cc(C(=O)NCc3ccc(Cl)cc3)no2)c1	-3.3
CSc1nc2ccccc2c(=O)n1N	12.4

Lab note: next compound to report on.
Recorded inhibition of aggregation (compound COc1ccccc1NC(=O)c1cc2n(n1)C(C(F)(F)F)CC(c1ccc3c(c1)OCO3)N2 (stereo unspecified) ): 5.1
